Assay: Measure of AUCpo/AUCiv x 100% of the parent compound before (free) and after (total) beta-glucuronidase treatment; total 72%
Assay type: ADME, organism-based
Details: in vivo, po; read-out: Bioavailabiility
metric: bioavailability (%)
Respond with the bare value in %.

Name the recorded bioavailability of the compound listed here: CCCc1c(O)c(CCCOc2ccc(C3N=NN=N3)cc2)cc2c1CC(CCc1ccccc1)O2 (stereo unspecified)
12

###

Target: Arachidonate 5-lipoxygenase (Homo sapiens)
Assay: Inhibitory activity of LTB4 production in human PMN
metric: pIC50
# reply with the number alone; pIC50 is -log10 of concentration in mol/L

| compound | pIC50 |
| --- | --- |
| CC1(C)c2cc(O)c(CCCOc3ccccc3)cc2OC1CCc1ccc(Cl)cc1 (stereo unspecified) | 6.33 |
| CS(=O)(=O)c1ccc(Cc2cc3c(cc2O)CC(CCc2ccccc2)O3)cc1 (stereo unspecified) | 6.72 |
| Oc1cc2c(cc1Cc1ccccc1)OC(CCc1ccccc1)C2 (stereo unspecified) | 7.74 |
| C=CCc1cc2c(cc1O)C(C)(C)C(Cc1ccc(OC)cc1)O2 (stereo unspecified) | 7.31 |

Name the recorded pIC50 of the compound listed here: CCCc1cc2c(cc1O)C(C)(C)C(CCc1ccc(S(C)(=O)=O)cc1)O2 (stereo unspecified)
6.75

Name the recorded pIC50 of the compound listed here: CCCc1cc(Cl)c2c(c1O)C(C)C(Cc1ccc(OC)cc1)O2 (stereo unspecified)
6.63

Name the recorded pIC50 of the compound listed here: COc1ccc(CC2Oc3ccc(O)cc3C2C)cc1 (stereo unspecified)
6.97

###

Let's look at some compounds and their measured inhibition in vivo at 0.5 mg/kg.
Test system: Rattus norvegicus
Test: Percentage inhibition against antigen induced dyspnea in hyperactive inbred rat at a dose of 0.5 mg/kg
Type: functional
Conditions: Rattus norvegicus
Respond with the bare value in %.

Examples from the recorded data:
| compound | inhibition in vivo at 0.5 mg/kg / % |
| --- | --- |
| C=CCc1cc2c(cc1O)CC(CCc1ccccc1)O2 (stereo not given) | 65 |
| CCCc1c(OCCCc2cc3c(cc2O)CC(CCc2ccccc2)O3)ccc(C(C)=O)c1O (stereo not given) | 50 |
| Oc1cc2c(cc1Cc1ccccc1)OC(CCc1ccccc1)C2 (stereo not given) | 53 |
| CCCc1c(O)c(CCCOc2ccc(C3N=NN=N3)cc2)cc2c1CC(CCc1ccccc1)O2 (stereo not given) | 64 |

Would you please give the reported inhibition in vivo at 0.5 mg/kg of COc1nc2c(SCCCc3cc4c(cc3O)CC(CCc3ccccc3)O4)cccc2cc1C(=O)O (stereo not given) with Rattus norvegicus?
69

###

Assay: Measure of AUCpo/AUCiv x 100% of the parent compound before (free) and after (total) beta-glucuronidase treatment; total 27%
Assay type: ADME, organism-based
Conditions: in vivo, po; read-out: Bioavailabiility
metric: bioavailability
Give the figure together with its unit, number first.

Name the recorded bioavailability of the compound listed here: Oc1cc2c(cc1CCCOc1ccccc1)OC(CCc1ccc(Cl)cc1)C2 (stereo unspecified)
6%

###

Biological target: Arachidonate 5-lipoxygenase (Homo sapiens)
Assay: Inhibitory activity of LTB4 production in human PMN
Let's look at some molecules and their measured IC50.
Respond with the bare value in µM.

Examples from the recorded data:
| molecule | metric | unit_tag | readout_value |
| --- | --- | --- | --- |
| CCCc1cc2c(cc1O)C(C)(C)C(CCSc1ccccn1)O2 (centres undefined) | IC50 | µM | 0.075 |
| O=C(O)c1ccc(OCCCc2cc3c(cc2O)CC(CCc2ccccc2)O3)cc1 (centres undefined) | IC50 | µM | 0.356 |
| C=CCc1c(O)ccc2c1CC(CCc1ccccc1)O2 (centres undefined) | IC50 | µM | 0.038 |

Now consider the entry below.
Name the recorded IC50 of the molecule listed here: CCCc1c(O)c(CCCOc2ccccc2)cc2c1CC(CCc1ccccc1)O2 (centres undefined)
0.052
